Assignment: determine reported pIC50 for the given compounds.
- Test system: Trypanosoma brucei rhodesiense
- Method: […] rhodesiense STIB 900 after 3 days
- Assay type: functional, organism-based
- Reported Conditions: STIB 900, 72 h
pIC50: −log10 of the molar value.

Per the record, "c1cc(OCCCCCOc2cccc(-c3nc4ccccc4[nH]3)c2)cc(-c2nc3ccccc3[nH]2)c1" has pIC50 of 6.07

Per the record, "c1ccc2[nH]c(-c3ccc(OCCCOc4ccc(-c5nc6ccccc6[nH]5)cc4)cc3)nc2c1" has pIC50 of < 4.22

Per the record, "c1ccc2[nH]c(-c3ccc(OCCCCCOc4ccc(-c5nc6ccccc6[nH]5)cc4)cc3)nc2c1" has pIC50 of < 4.22

Per the record, "c1ccc2[nH]c(-c3ccc(OCCCCCCCOc4ccc(-c5nc6ccccc6[nH]5)cc4)cc3)nc2c1" has pIC50 of < 4.22

Per the record, "c1ccc2[nH]c(-c3ccc(OCCCCCCOc4ccc(-c5nc6ccccc6[nH]5)cc4)cc3)nc2c1" has pIC50 of < 4.22

Per the record, "c1ccc2[nH]c(-c3ccc(OCCCCOc4ccc(-c5nc6ccccc6[nH]5)cc4)cc3)nc2c1" has pIC50 of < 4.22

Per the record, "N=C(N)c1ccc(OCCCCCOc2ccc(C(=N)N)cc2)cc1" has pIC50 of 7.30
